- method summary: qHTS Assay for Identification of Small Molecule Agonists for Hypoxia Response Element Signaling Pathway (AID 914); also: % of control where 0% means no effect
- experimental setup: ME-180 (cervical carcinoma) HRE-bla reporter, beta-lactamase ratio, CoCl2, 17 h; hits give high values
Inconclusive results are not listed.
quantity measured: activation (%)

[[record]]
chemical_structure = "C[C@]12CC[C@@H]3[C@H](CCC4=CC(=O)CC[C@]43C)[C@]1(O)CC[C@@]2(O)C(=O)CO"
quantity_measured = "activation"
unit_tag = "%"
value_measured = 7.15

[[record]]
chemical_structure = "N[C@H](Cn1ccc(=O)[nH]c1=O)C(=O)O"
quantity_measured = "activation"
unit_tag = "%"
value_measured = 10.5

[[record]]
chemical_structure = "Cc1nc2ccccc2cc1C[N+]12CN3CN(CN(C3)C1)C2"
quantity_measured = "activation"
unit_tag = "%"
value_measured = 9.32

[[record]]
chemical_structure = "O=[As](O)(O)c1ccc(N=Nc2ccc(O)cc2)cc1"
quantity_measured = "activation"
unit_tag = "%"
value_measured = 5.33

[[record]]
chemical_structure = "Oc1ccc(CCNCc2cc3c(cc2Br)OCO3)cc1"
quantity_measured = "activation"
unit_tag = "%"
value_measured = -17.8

[[record]]
chemical_structure = "O=C(O)C(=O)Cc1ccc2c(c1)OCO2"
quantity_measured = "activation"
unit_tag = "%"
value_measured = -7.84

[[record]]
chemical_structure = "O=C(O)[C@H]1C2c3ccccc3C(c3ccccc32)[C@@H]1C(=O)NCC1CC1"
quantity_measured = "activation"
unit_tag = "%"
value_measured = -0.158

[[record]]
chemical_structure = "CC(C)CNCCc1ccccn1"
quantity_measured = "activation"
unit_tag = "%"
value_measured = 5.07

[[record]]
chemical_structure = "CC(=O)OC1=CC2=CC[C@H]3[C@H]4CCC(=O)[C@@]4(C)CC(=O)[C@]3(S)[C@]2(C)CC1"
quantity_measured = "activation"
unit_tag = "%"
value_measured = -4.78

[[record]]
chemical_structure = "Cc1c([C@@H](C)[C@H]2NC[C@H](C)C[C@@H]2O)ccc2c1C[C@@H]1[C@H]2CC=C2C[C@@H](O)CC[C@@]21C"
quantity_measured = "activation"
unit_tag = "%"
value_measured = 4.43

[[record]]
chemical_structure = "CN(C)CS/C(N)=N/[C@H](O)C(Cl)(Cl)Cl"
quantity_measured = "activation"
unit_tag = "%"
value_measured = 7.72

